Listing of entries alongside the reported hERG current change (%, negative = inhibition) at 10uM.
Molecular target: human ether-à-go-go-related gene (hERG) potassium channel (human, UniProt Q12809);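 note: peak tail current of the secondary pulse compared with the same well before compound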
Sequence (Q12809 whole entry, looked up): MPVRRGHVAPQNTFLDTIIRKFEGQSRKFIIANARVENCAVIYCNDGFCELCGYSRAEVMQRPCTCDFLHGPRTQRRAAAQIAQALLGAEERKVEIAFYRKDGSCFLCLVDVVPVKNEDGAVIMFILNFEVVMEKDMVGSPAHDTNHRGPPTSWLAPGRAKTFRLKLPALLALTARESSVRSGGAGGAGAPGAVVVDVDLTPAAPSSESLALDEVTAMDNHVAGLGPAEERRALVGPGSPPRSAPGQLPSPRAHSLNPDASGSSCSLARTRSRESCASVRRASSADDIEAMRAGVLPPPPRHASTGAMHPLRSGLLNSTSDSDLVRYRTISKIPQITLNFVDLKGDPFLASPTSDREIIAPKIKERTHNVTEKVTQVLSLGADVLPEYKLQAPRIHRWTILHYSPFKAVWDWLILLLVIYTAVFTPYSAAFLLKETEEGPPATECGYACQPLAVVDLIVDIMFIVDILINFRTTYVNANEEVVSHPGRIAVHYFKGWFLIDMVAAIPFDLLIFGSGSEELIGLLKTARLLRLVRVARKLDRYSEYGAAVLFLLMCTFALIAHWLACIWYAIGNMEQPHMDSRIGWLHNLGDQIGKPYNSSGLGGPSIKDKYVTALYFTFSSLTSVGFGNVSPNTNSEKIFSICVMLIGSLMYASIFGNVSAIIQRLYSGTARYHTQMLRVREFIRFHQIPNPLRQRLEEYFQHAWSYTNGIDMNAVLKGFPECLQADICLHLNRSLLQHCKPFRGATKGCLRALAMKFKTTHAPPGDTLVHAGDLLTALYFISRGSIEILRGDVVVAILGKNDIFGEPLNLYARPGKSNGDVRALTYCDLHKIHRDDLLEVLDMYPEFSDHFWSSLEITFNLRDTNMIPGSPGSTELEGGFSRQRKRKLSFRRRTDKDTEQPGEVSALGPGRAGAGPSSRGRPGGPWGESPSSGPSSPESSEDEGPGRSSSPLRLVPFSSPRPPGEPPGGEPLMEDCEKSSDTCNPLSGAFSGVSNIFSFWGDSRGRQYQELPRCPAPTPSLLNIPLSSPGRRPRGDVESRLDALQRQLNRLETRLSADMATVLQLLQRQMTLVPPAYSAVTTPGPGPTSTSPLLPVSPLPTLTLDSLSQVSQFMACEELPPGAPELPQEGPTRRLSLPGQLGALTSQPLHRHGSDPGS
Experiment: primary screen, population patch clamp on CHO cells stably expressing hERG; higher = less effect of the substance
Out of some 310,000 compounds screened, about 14,000 (4.5%) showed an effect of 50% or more. Effects have a minus sign here. The full list was thinned out, with strong results kept by preference.
EXPERIMENTAL_ENDPOINT: hERG current change (%, negative = inhibition) at 10uM (%)

{"COMPOUND_STRUCTURE_STRING": "CCNc1nc(NC(C)C)nc(N2CC(=O)N(CC(=O)OCC)C2=N)n1", "UNITS_TEXT": "%", "REPORTED": -13.9}
{"COMPOUND_STRUCTURE_STRING": "COc1ccc(CNc2nc3ccccc3n2CCN2CCCCC2)c(OC)c1", "UNITS_TEXT": "%", "REPORTED": -84.4}
{"COMPOUND_STRUCTURE_STRING": "CCCn1c(NCc2cccc(OC)c2O)nc2ccccc21", "UNITS_TEXT": "%", "REPORTED": -18.1}
{"COMPOUND_STRUCTURE_STRING": "CS(=O)(=O)N1CCC(C(=O)c2cccc(Cl)c2)CC1", "UNITS_TEXT": "%", "REPORTED": -0.907}

----------
Target: human ether-à-go-go-related gene (hERG) potassium channel (human);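 note: peak tail current of the secondary pulse compared with the same well before compound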
Test: primary screen, population patch clamp on CHO cells stably expressing hERG; higher = less effect of the substance
Out of some 310,000 compounds screened, about 14,000 (4.5%) showed an effect of 50% or more. The effect is printed as a negative number. Shown is part of a subset that was picked to be rich in strong results.
Mark rule not met for hERG current change (%, negative = inhibition) at 10uM values under 10%, and rule met for everything at or above.

{"COMPOUND": "CCCNC(=O)Cn1c(=O)oc2cc(S(=O)(=O)N3CCCC3)ccc21", "LABEL": "rule met"}
{"COMPOUND": "Cc1ccc(NC(=O)C2CCCN2C(=O)c2cccs2)c(C)c1 (centres unmarked)", "LABEL": "rule met"}
{"COMPOUND": "COc1cccc(/C=N/NC(=O)CN(C2=NS(=O)(=O)c3ccccc32)c2ccccc2)c1", "LABEL": "rule not met"}
{"COMPOUND": "CC(=Nc1ccc2c(c1)CCC2)c1c(O)n(C)c(=O)n(C)c1=O", "LABEL": "rule not met"}
{"COMPOUND": "CN1/C(=C\\C(=S)NC(=O)c2cccc(Br)c2)C(C)(C)c2ccccc21", "LABEL": "rule not met"}

----------
Target: human ether-à-go-go-related gene (hERG) potassium channel (human);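 note: peak tail current of the secondary pulse compared with the same well before compound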
Test: primary screen, population patch clamp on CHO cells stably expressing hERG; higher = less effect of the substance
Protocol: Briefly, Chinese hamster ovary (CHO) cells stably expressing the hERG channel were dislodged from tissue culture flasks and dispensed into PPC plates. […] During the recording, background leak currents were estimated by a 100 ms step to -80 mV from an initial holding potential of -70 mV and subtracted from the subsequent current measurement. The campaign was conducted in two phases using slight differences in recording protocol. […]
In all, about 310,000 compounds went through this assay and about 14,000 (4.5%) showed an effect of 50% or more. The effect is printed as a negative number. The sample holds strong results, similar compounds and a random draw of the others, so the mix is not that of the screen.
EXPERIMENTAL_ENDPOINT: hERG current change (%, negative = inhibition) at 10uM (%)

{"MOLECULE": "O=C1S/C(=C\\c2ccc(Cl)cc2)C(=O)N1CCn1cnnn1", "SUBJECT_OF_TEST": "human ether-à-go-go-related gene (hERG) potassium channel (human)", "UNITS_TEXT": "%", "REPORTED": -0.978}
{"MOLECULE": "CCCN(CC#CC(O)(c1ccccc1)c1cccnc1)CCC (stereo not shown)", "SUBJECT_OF_TEST": "human ether-à-go-go-related gene (hERG) potassium channel (human)", "UNITS_TEXT": "%", "REPORTED": -37.3}
{"MOLECULE": "O=C(c1cc(COc2c(F)cccc2F)on1)N1CCC(c2ccccc2F)C1 (stereo not shown)", "SUBJECT_OF_TEST": "human ether-à-go-go-related gene (hERG) potassium channel (human)", "UNITS_TEXT": "%", "REPORTED": 20.4}
{"MOLECULE": "COc1ccccc1NC(=O)c1sc2nc(N3CCOCC3)c3c(c2c1N)CCCC3", "SUBJECT_OF_TEST": "human ether-à-go-go-related gene (hERG) potassium channel (human)", "UNITS_TEXT": "%", "REPORTED": 15.2}
{"MOLECULE": "Cc1cc(C)n(-c2cccc(CN(C)Cc3nc(-c4cnccn4)no3)c2)n1", "SUBJECT_OF_TEST": "human ether-à-go-go-related gene (hERG) potassium channel (human)", "UNITS_TEXT": "%", "REPORTED": 10.8}
{"MOLECULE": "CN(C)c1ccc(CCc2ccc(N)cc2)cc1", "SUBJECT_OF_TEST": "human ether-à-go-go-related gene (hERG) potassium channel (human)", "UNITS_TEXT": "%", "REPORTED": 19.9}
{"MOLECULE": "Cc1ccc(CNC(=O)CSc2nc3ccsc3c(=O)n2NC(=O)c2ccccc2)cc1", "SUBJECT_OF_TEST": "human ether-à-go-go-related gene (hERG) potassium channel (human)", "UNITS_TEXT": "%", "REPORTED": -9.41}
{"MOLECULE": "Cc1ccc(N2C(=O)C(Cl)=C(N3CCOCC3)C2=O)c(C)c1", "SUBJECT_OF_TEST": "human ether-à-go-go-related gene (hERG) potassium channel (human)", "UNITS_TEXT": "%", "REPORTED": 14.6}
{"MOLECULE": "O=C(Nc1ccc(Cl)c(C(F)(F)F)c1)C(=O)N1CCCCC1", "SUBJECT_OF_TEST": "human ether-à-go-go-related gene (hERG) potassium channel (human)", "UNITS_TEXT": "%", "REPORTED": -1.61}
{"MOLECULE": "CC(C)CCNC(=O)C(c1ccco1)N(CCCO)C(=O)Cn1nnc(-c2ccc(F)cc2)n1 (stereo not shown)", "SUBJECT_OF_TEST": "human ether-à-go-go-related gene (hERG) potassium channel (human)", "UNITS_TEXT": "%", "REPORTED": -20.2}
{"MOLECULE": "CN(Cc1ccc(-n2cccn2)cc1)Cc1nc(-c2cnccn2)no1", "SUBJECT_OF_TEST": "human ether-à-go-go-related gene (hERG) potassium channel (human)", "UNITS_TEXT": "%", "REPORTED": -58.2}
{"MOLECULE": "O=C(COC(=O)c1cccc(S(=O)(=O)NCc2ccccc2)c1)NCC1CCCO1 (stereo not shown)", "SUBJECT_OF_TEST": "human ether-à-go-go-related gene (hERG) potassium channel (human)", "UNITS_TEXT": "%", "REPORTED": 3.36}
{"MOLECULE": "Cc1nc([N+](=O)[O-])cn1CC(O)c1ccc(-c2ccccc2)cc1 (stereo not shown)", "SUBJECT_OF_TEST": "human ether-à-go-go-related gene (hERG) potassium channel (human)", "UNITS_TEXT": "%", "REPORTED": -44.3}
{"MOLECULE": "O=C(Cn1nnc(-c2ccccc2)n1)NNC(=O)c1ccc(Br)cc1", "SUBJECT_OF_TEST": "human ether-à-go-go-related gene (hERG) potassium channel (human)", "UNITS_TEXT": "%", "REPORTED": 17.6}
{"MOLECULE": "CC(C)Oc1ccc(Br)cc1C(=O)N/N=C/c1c[nH]c2ccccc12", "SUBJECT_OF_TEST": "human ether-à-go-go-related gene (hERG) potassium channel (human)", "UNITS_TEXT": "%", "REPORTED": 16.2}
{"MOLECULE": "Cc1cc(S(=O)(=O)Nc2ccc3ccccc3c2)c(C)s1", "SUBJECT_OF_TEST": "human ether-à-go-go-related gene (hERG) potassium channel (human)", "UNITS_TEXT": "%", "REPORTED": -0.508}
